# Study system: Human recombinant FAP (Homo sapiens, UniProt Q12884)
# Sequence (Q12884 whole entry): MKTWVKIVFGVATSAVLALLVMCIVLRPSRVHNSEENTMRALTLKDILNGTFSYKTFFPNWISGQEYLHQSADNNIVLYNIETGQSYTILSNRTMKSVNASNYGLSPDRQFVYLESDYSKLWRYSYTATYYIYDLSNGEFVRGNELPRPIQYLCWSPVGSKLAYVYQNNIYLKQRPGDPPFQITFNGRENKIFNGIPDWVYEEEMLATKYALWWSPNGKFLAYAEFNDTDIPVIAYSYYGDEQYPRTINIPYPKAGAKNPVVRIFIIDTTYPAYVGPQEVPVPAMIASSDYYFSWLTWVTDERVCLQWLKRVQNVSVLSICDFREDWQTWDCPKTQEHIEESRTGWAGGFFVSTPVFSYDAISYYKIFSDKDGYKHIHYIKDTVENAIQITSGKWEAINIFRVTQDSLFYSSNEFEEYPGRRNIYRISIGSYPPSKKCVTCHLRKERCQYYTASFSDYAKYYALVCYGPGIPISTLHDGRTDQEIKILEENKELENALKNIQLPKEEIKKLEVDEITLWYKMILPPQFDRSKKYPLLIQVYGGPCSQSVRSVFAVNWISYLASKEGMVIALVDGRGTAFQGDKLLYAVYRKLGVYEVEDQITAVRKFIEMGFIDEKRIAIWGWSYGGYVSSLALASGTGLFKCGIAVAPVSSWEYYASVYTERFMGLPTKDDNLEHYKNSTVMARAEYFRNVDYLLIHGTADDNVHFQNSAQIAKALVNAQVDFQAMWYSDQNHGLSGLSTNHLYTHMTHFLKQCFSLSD
# Protocol description: FRET-based FAP protease activity assay
# Type: biochemical
# Design: purchased R&D systems 3715-SE
# Measurement setup: pIC50 Category (Activity), FRET substrate, 37° C.
Numbered stars: 1 amine (or outer) side, 2 acyl side, 3 side chain; on linkers, the order of the positions; unused ones are H or OH. Bridge positions count the residues as written; N and C are the ends. Square brackets hold non-standard residues; d marks the D form. Peptide text beside a SMILES is read from it. * marks the point of attachment. mXylylene = c1cc(C[*:1])cc(C[*:2])c1; PEG6 = NCCOCCOCCOCCOCCOCCOCCC(=O)O; X18 = NCCNCC(CNCCN)C(=O)*; Nle = CCCC[C@H](N)C(=O)O
Recorded metric: IC50

Use the examples below as a reference point.
molecule="CCCCCC(=O)N[C@H]1CSCc2cc(CSCCNC(=O)CCC(=O)NCCCOCCOCCOCCCNC(=O)CN(CCN(CCN(CC(=O)O)CC(=O)O)CC(=O)O)CC(=O)O)cc(c2)CSC[C@@H](C(=O)O)NC(=O)[C@H](Cc2ccccc2)NC(=O)[C@H](CCC(N)=O)NC(=O)[C@H]([C@@H](C)O)NC(=O)[C@@H]2CCCN2C(=O)[C@@H]2CCCN2C1=O [3BP-4352]" recorded_metric=IC50 measured_value="0.01 to 0.0794 µM"
molecule="CCCCCC(=O)N[C@H]1CSCc2cc(CSCCNC(=O)CN3CCN(CC(=O)O)CCN(CC(=O)O)CCN(CC(=O)O)CC3)cc(c2)CSC[C@@H](C(=O)N(C)CC(N)=O)NC(=O)[C@H](Cc2ccccc2)NC(=O)[C@H](CCC(N)=O)NC(=O)[C@H]([C@@H](C)O)NC(=O)[C@@H]2CCCN2C(=O)[C@@H]2CCCN2C1=O [3BP-3737]" recorded_metric=IC50 measured_value="< 0.01 µM"
molecule="CCCCCC(=O)N[C@H]1CSCc2cc(CSCCNC(=O)CN3CCN(CC(=O)O)CCN(CC(=O)O)CCN(CC(=O)O)CC3)cc(c2)CSC[C@@H](C(=O)O)NC(=O)[C@H](Cc2ccccc2)NC(=O)[C@H](CCC(N)=O)NC(=O)[C@H]([C@@H](C)O)NC(=O)[C@@H]2C[C@@H](O)CN2C(=O)[C@@H]2CCCN2C1 [3BP-3679]" recorded_metric=IC50 measured_value="< 0.01 µM"
molecule="CCCC[C@H](NC(=O)CCOCCOCCOCCOCCOCCOCCNC(=O)C(CNCCN)CNCCN)C(=O)N[C@H]1CSCc2cccc(c2)CSC[C@@H](C(=O)O)NC(=O)[C@H](Cc2ccccc2)NC(=O)[C@H](CCC(=O)O)NC(=O)[C@H]([C@@H](C)O)NC(=O)[C@@H]2CCCN2C(=O)[C@@H]2CCCN2C1=O [3BP-4221] ({X18-PEG6}-[Nle]CPPTEFC-OH; linker 2-8 via mXylylene)" recorded_metric=IC50 measured_value="0.01 to 0.0794 µM"
molecule="CCCCCC(=O)N[C@H]1CSCc2cc(CSCCNC(=O)CCCCC3(N(C)CC(=O)O)CN(CC(=O)O)CCN(CC(=O)O)C3)cc(c2)CSC[C@@H](C(=O)O)NC(=O)[C@H](Cc2ccccc2)NC(=O)[C@H](CCC(N)=O)NC(=O)[C@H]([C@@H](C)O)NC(=O)[C@@H]2CCCN2C(=O)[C@@H]2CCCN2C1=O [3BP-4382]" recorded_metric=IC50 measured_value="0.01 to 0.0794 µM"
molecule="CCCCCC(=O)N[C@H]1CSCc2cc(CSCCNC(=O)CC[C@H](C(=O)O)N3CCN(CC(=O)O)CN(CC(=O)O)C3)cc(c2)CSC[C@@H](C(=O)O)NC(=O)[C@H](Cc2ccccc2)NC(=O)[C@H](CCC(N)=O)NC(=O)[C@H]([C@@H](C)O)NC(=O)[C@@H]2CCCN2C(=O)[C@@H]2CCCN2C1=O [3BP-4162]" recorded_metric=IC50 measured_value="< 0.01 µM"

Input: # value lookup — system Human recombinant FAP (Homo sapiens, UniProt Q12884), readout IC50, item CCCCCC(=O)N[C@H]1CSCc2cc(CSCCNC(=O)CN3CCN(CC(=O)O)CCN(CC(=O)O)CCN(CC(=O)O)CC3)cc(c2)CSC[C@@H](C(=O)NCCC(N)=O)NC(=O)[C@H](Cc2ccccc2)NC(=O)[C@H](CCC(N)=O)NC(=O)[C@H]([C@@H](C)O)NC(=O)[C@@H]2CCCN2C(=O)[C@@H]2CCCN2C1=O [3BP-3736]
Output: < 0.01 µM

Input: Form field: IC50 recorded for CCCCCC(=O)N[C@H]1CSCc2cc(cc(CN3CCN(C(=O)C(CNCCN)CNCCN)CC3)c2)CSC[C@@H](C(=O)O)NC(=O)[C@H](Cc2ccccc2)NC(=O)[C@H](CCC(N)=O)NC(=O)[C@H]([C@@H](C)O)NC(=O)[C@@H]2CCCN2C(=O)[C@@H]2CCCN2C1=O [3BP-4168] with Human recombinant FAP (Homo sapiens, UniProt Q12884) (enter value)
Output: < 0.01 µM
